Molecular target: HLA-B*35:01
Assay: IEDB peptide-MHC binding, purified MHC/competitive/radioactivity; filed as Kd, often an IC50 or EC50 that approximates it; bounds were set here for any values at or beyond the usual limits of such assays
Settings: source organism: Dengue virus 3 Sri Lanka/1266/2000
pKd: −log10 of the molar value.
Readout Type: pKd

| Residue Sequence | Observed Value |
| --- | --- |
| LIVSGIFPY | 7.08 |

====

Catalogue of sequences with associated Kd
Target: HLA-A*02:03
Assay: IEDB peptide-MHC binding, purified MHC/direct/fluorescence; filed as Kd, often an IC50 or EC50 that approximates it; bounds were set here for any values at or beyond the usual limits of such assays
Settings: source organism: Listeria monocytogenes serotype 4b str. H7858
Readout Type: Kd

| Residue Sequence | Study System | Readout Type | Observed Value |
| --- | --- | --- | --- |
| FPDGKPFTL | HLA-A*02:03 | Kd | ≥ 20 µM |
| ERYPGGVSL | HLA-A*02:03 | Kd | ≥ 20 µM |
